Assay details: Cytotoxicity activity against human HepG2 cells assessed by CellTiter-Glo luminescent cell viability assay.
Assay type: toxicity, cell-based
Design: assay stage confirmatory assay, source tissue liver
Condition set: HepG2 cells, read-out: IC50 relative
Active and inactive are the calls of the source. No rule for the calls is given here.
Consider the following compounds; for each one, report its CC50.

Input line: // query CC50 value for entry Cc1nc(-c2ccccn2)[nH]c(=O)c1CC(=O)N1CCC[C@H]1C1CCCCC1
Output line: 6.7 µM (active)

Input line: // query CC50 value for entry CCc1cc(N2CCC(NC(=O)N3CCN(c4cccnn4)CC3)CC2)ncn1
Output line: 16.3 µM (inactive)

Input line: // query CC50 value for entry CN(C)CCCOc1ccc(-c2ccc3ncc4c(c3c2)n(C2CCOCC2)c(=O)n4C)cn1
Output line: 7.4 µM (active)

Input line: // query CC50 value for entry Nc1ccnc2ccc(Oc3ccccc3)cc12
Output line: 11.2 µM (active)

Input line: // query CC50 value for entry C[C@@H]1CCCN1CCc1cc2cc(-c3ccc(C#N)cc3)ccc2o1
Output line: 6.1 µM (active)

Input line: // query CC50 value for entry CCOc1cc2ccccc2cc1C(=O)NCc1ccco1
Output line: 1.7 µM (active)

Input line: // query CC50 value for entry CC(C)(C#N)c1ccc(N2C(=O)OCc3cnc4ccc(-c5cnc6ccccc6c5)cc4c32)cc1
Output line: 7 µM (active)

Input line: // query CC50 value for entry COc1ccc(-c2cn3nc(N4CCC(C(=O)NCCCN5CCN(C)CC5)CC4)sc3n2)cc1
Output line: 4.1 µM (active)

Input line: // query CC50 value for entry CCn1nc(C)cc1C(=O)Nc1nc2cc(C#N)ccc2n1CC
Output line: 4 µM (active)

Input line: // query CC50 value for entry O=C(O)c1ccc2c3c1cccc3c(=O)n1c3ccccc3nc21
Output line: 3.3 µM (active)

Input line: // query CC50 value for entry COc1cc2c3c(n(CCCNCCO)c(=O)c2cc1OC)-c1cc2c(cc1C3=O)OCO2
Output line: 1.1 µM (active)

Input line: // query CC50 value for entry O=c1cc(O)c2c(-c3ccc(F)cc3)csc2[nH]1
Output line: 2.7 µM (active)

Input line: // query CC50 value for entry Cc1c(C(=O)Nc2ccnc3ccnn23)cnn1-c1ccccc1F
Output line: 3.3 µM (active)

Input line: // query CC50 value for entry Oc1c(Cl)cc(Cl)c(Cl)c1Cc1c(O)c(Cl)cc(Cl)c1Cl [HEXACHLOROPHENE]
Output line: 5.2 µM (active)

Input line: // query CC50 value for entry Cc1c(NC(=O)OC[C@@H]2COCCN2)cn2ncnc(Nc3ccc4c(cnn4Cc4cccc(F)c4)c3)c12
Output line: 9 µM (active)

Input line: // query CC50 value for entry N#Cc1ccc(NC(=O)Nc2cnn(-c3ccccc3)c2)cc1
Output line: 8.9 µM (active)

Input line: // query CC50 value for entry Cc1nc(-c2cccc(C(=O)N3CCN(Cc4noc(-c5ccc(F)cc5)n4)CC3)c2)no1
Output line: 5.4 µM (active)

Input line: // query CC50 value for entry CCOCCCNC(=O)c1nnn(-c2ccc3ncccc3c2)c1C
Output line: 3.1 µM (active)

Input line: // query CC50 value for entry O=C(CCn1sc2ccccc2c1=O)NCCc1c[nH]c2ccccc12
Output line: 5 µM (active)

Input line: // query CC50 value for entry Cn1c(Nc2ccc(C(F)(F)F)cc2)nc2cc(Oc3ccnc(-c4ncc(C(F)(F)F)[nH]4)c3)ccc21 [RAF-265]
Output line: 1.5 µM (active)

Input line: // query CC50 value for entry COc1ccc(-c2nc(N3CCOCC3)c3sc(CN(C)c4ncc(C(=O)NO)cn4)cc3n2)cn1 [FIMEPINOSTAT]
Output line: < 0.1 µM (active)
